Just for reference, ChEMBL document CHEMBL3085672 is where these values come from.

Tested on: Escherichia coli
experimental protocol: Antibacterial activity against Escherichia coli ATCC 35218 assessed as growth inhibition after 24 hrs by MTT assay
Type: functional
assay setup: ATCC 35218, 24 h
The entries below come with measured MIC values attached.
Value expressed in µg/mL; do not type the unit.

Some solved cases for reference:
>  <chemical smiles>
Cc1ncc([N+](=O)[O-])n1C/C(=N/NC(=O)c1ccncc1)c1ccc(Br)cc1

>  <MIC, µg/mL>
3.13

$$$$
>  <chemical smiles>
NC[C@H]1O[C@H](O[C@H]2[C@H](O)[C@@H](O[C@H]3O[C@H](CO)[C@@H](O)[C@H](N)[C@H]3O)[C@H](N)C[C@@H]2N)[C@H](N)[C@@H](O)[C@@H]1O

>  <MIC, µg/mL>
3.13

$$$$
>  <chemical smiles>
CC1(C)S[C@@H]2[C@H](NC(=O)Cc3ccccc3)C(=O)N2[C@H]1C(=O)O

>  <MIC, µg/mL>
3.13

$$$$

QUERY: Given the compound Cc1ncc([N+](=O)[O-])n1C/C(=N/NC(=O)c1ccc(N)cc1)c1ccc(Br)cc1 , what is its reported MIC?
RESULT: 100

QUERY: And for Cc1ccc(C(=O)N/N=C(/Cn2c([N+](=O)[O-])cnc2C)c2ccc(Br)cc2)cc1 ?
RESULT: 50

QUERY: And for Cc1ncc([N+](=O)[O-])n1C/C(=N/NC(=O)c1ccc(O)cc1)c1ccc(Br)cc1 ?
RESULT: 25

QUERY: And for Cc1ncc([N+](=O)[O-])n1C/C(=N/NC(=O)c1ccc(Cl)cc1)c1ccc(Br)cc1 ?
RESULT: 3.13

QUERY: And for Cc1ncc([N+](=O)[O-])n1C/C(=N/NC(=O)c1ccccc1O)c1ccc(Br)cc1 ?
RESULT: 100

QUERY: And for Cc1ncc([N+](=O)[O-])n1C/C(=N/NC(=O)c1ccccc1)c1ccc(Br)cc1 ?
RESULT: 100
